Molecular target: T1, human soluble urokinase plasminogen activator receptor (suPAR) (human, UniProt Q03405 23-303, limits assumed)
T1 construct: Target antigen of the off-rate screen; also called hsuPAR; human suPAR
T1 sequence (Q03405 23-303 limits assumed): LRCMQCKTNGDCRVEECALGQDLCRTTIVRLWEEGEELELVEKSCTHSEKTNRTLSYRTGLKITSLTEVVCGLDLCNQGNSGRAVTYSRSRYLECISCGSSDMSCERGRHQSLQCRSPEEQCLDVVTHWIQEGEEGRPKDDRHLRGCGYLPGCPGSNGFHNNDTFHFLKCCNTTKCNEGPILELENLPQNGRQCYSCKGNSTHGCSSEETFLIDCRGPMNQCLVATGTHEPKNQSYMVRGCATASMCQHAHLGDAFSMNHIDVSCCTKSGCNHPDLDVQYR
Assay: off-rate (kdis) screen of scFv clones, biosensor (Octet)
Reported koff values for the following binders.
State just the number; it will be interpreted in s⁻¹.

Exercise: # get_value(readout='koff', item= suPAR_DB01_E10 (scFv, V domains shown, screened as scFv) VH: QVQLVQSGAEVKKPGASVKVSCKASGYTFTGYYMHWVRQAPGQGLEWMGWIDHENGSTSYDQKFQGRVTMTRDTSTSTVYMELSSLRSEDTAVYYCARGYDVDWFVYWGQGTLVTVSS VL: DIQMTQSPSSLSASVGDRVTITCRARQSVSYMYWYQQKPGKAPKLLIYRTSNLASGVPSRFSGSGSGTDFTLTISSLQPEDFATYYCQQYHSYPPTFGGGTKVEIK )
Key: 0.00162

Others:
Exercise: # get_value(readout='koff', item= suPAR_DB01_E01 (scFv, V domains shown, screened as scFv) VH: QVQLVQSGAEVKKPGASVKVSCKASGYSFTSYYMHWVRQAPGQGLEWMGWIDPEGGSTIYDQKFQGRVTMTRDTSTSTVYMELSSLRSEDTAVYYCARGYDVDWFVYWGQGTLVTVSS VL: DIQMTQSPSSLSASVGDRVTITCSARSSVSYMYWYQQKPGKAPKLLIYRTSNLASGVPSRFSGSGSGTDFTLTISSLQPEDFATYYCQQYHSYPPTFGGGTKVEIK )
Key: 0.00474
